- procedure_details: SK-MEL-5 parental cell viability loss, dose response, orthogonal assay for MITF inhibitor project, CellTiter-Glo, cherry-picked, set 3 (AID 493240)
- reported_conditions: SK-MEL-5 viability, ATP luminescence (CellTiter-Glo), 24 h; series mostly up to 35 µM
In all, about 1,300 compounds went through this assay and about 270 (21%) were called active. The list is a sample of the results. Entries with a potency or affinity are not part of this list.
measured_quantity: outcome

Previously resolved entries follow.
chem_smiles=C=CCn1c(C)cc(C2=NNC(=NC(C)(C)C)SC2)c1C observed_measurement=inactive
chem_smiles=COCc1cc(C)nc2sc(C(=O)Nc3cccc(OC)c3)c(N)c12 observed_measurement=inactive
chem_smiles=O=C(COC(=O)C1=COCCO1)Nc1c(F)cccc1F observed_measurement=inactive
chem_smiles=CC1CCN(c2ccc(NC(=O)c3cccnc3)cc2)CC1 observed_measurement=inactive
chem_smiles=O=C(O)c1cc2ccccc2c(N=Nc2cccnc2)c1O observed_measurement=inactive

# lookup: outcome of CCN(CCO)c1ccc(N=Nc2cc(C)[nH]n2)cc1
inactive

* * *

- procedure_details: SK-MEL-5 parental cell viability loss, dose response, orthogonal assay for MITF inhibitor project, CellTiter-Glo, cherry-picked, set 3 (AID 493240)
- reported_conditions: SK-MEL-5 viability, ATP luminescence (CellTiter-Glo), 24 h; series mostly up to 35 µM
Out of some 1,300 compounds screened, about 270 (21%) were called active. The list is a sample of the results. Measured potencies and affinities stand elsewhere.
measured_quantity: outcome

For orientation, consider the following solved cases.
molecule=COc1ccc(-c2csc(N(C)C(=O)c3ccco3)n2)cc1 measured_quantity=outcome observed_measurement=inactive
molecule=c1ccc(OCc2nn3c(-c4ccccn4)nnc3s2)cc1 measured_quantity=outcome observed_measurement=inactive
molecule=N#CCSc1nc2ccccc2c2nc3ccccc3n12 measured_quantity=outcome observed_measurement=inactive
molecule=Cc1csc(N/N=C/c2ccc([N+](=O)[O-])cc2)n1 measured_quantity=outcome observed_measurement=inactive
molecule=N#C/C(=C\c1c[nH]c2ccccc12)C(=O)NC1CC1 measured_quantity=outcome observed_measurement=inactive

I'd like to know its outcome. The molecule in question is CCCCC1C(=O)N(c2ccccc2)N(c2ccc(O)cc2)C1=O (configuration not stated)
inactive

What do you get for COc1cccc(NC(=O)c2cc3ccccc3cc2OC)c1 ?
inactive

Now give it for CCCCC(=O)N/C(N)=N/c1nc2ccccc2o1 too.
inactive

Repeat for the following molecule: O=C(c1nnsc1S(=O)(=O)c1ccc(Cl)cc1)N1CCOCC1
inactive

Do the same for CCOC(=O)C1CCCN(C(=O)C2CCN(S(=O)(=O)CC)CC2)C1 (configuration not stated) please
inactive

Also, CC(=O)c1sc(N/N=C\c2ccc(N(C)C)cc2)nc1C please.
inactive

Then this molecule: Cc1ccccc1C(=O)O/N=C(\N)c1ccc([N+](=O)[O-])cc1
inactive

* * *

- procedure_details: SK-MEL-5 parental cell viability loss, dose response, orthogonal assay for MITF inhibitor project, CellTiter-Glo, cherry-picked, set 3 (AID 493240)
- reported_conditions: SK-MEL-5 viability, ATP luminescence (CellTiter-Glo), 24 h; series mostly up to 35 µM
Among all 1,300 compounds or so, about 270 (21%) were called active. Not all results are given here. Results with a measured potency or affinity are listed apart.
measured_quantity: outcome

compound=O=C(O)c1ccc(Nc2nc3c(s2)CCCC3)cc1 measured_quantity=outcome observed_measurement=inactive
compound="COc1ccc(C(NC(C)=O)c2ccc3cccnc3c2O)c(OC)c1 (stereo not drawn)" measured_quantity=outcome observed_measurement=inactive
compound=S=c1[nH]nc(-c2ccco2)n1/N=C/C(Cl)=C/c1ccccc1 measured_quantity=outcome observed_measurement=inactive
